Test system: Human osteosarcoma U2OS cells
Experiment: Assay to measure lysosome and autolysosome (acidic vesicle) formation in U2OS cells
Type: cell-based
Settings: Homo sapiens, concentration of 0.8 μM, read-out: Activity (percentage increase in acidic vesicle formation over the DMSO-treated control)
quantity: activation at 0.8 µM

CCN1CCC(N(C)C(=O)c2cc(-c3cnn(-c4ccccc4)c3)c[nH]2)CC1 | 30 to 50%
CCN1CCC(N(C)C(=O)c2csc(-c3cnn(-c4ccccn4)c3)n2)CC1 | 10 to 30%
CCN1CCC(NC(=O)c2ccc(-c3cnn(-c4ccccc4)c3)[nH]2)CC1 | 10 to 30%
CCN1CCC(N(C)C(=O)c2csc(-c3cnn(-c4ncccn4)c3)n2)CC1 | 10 to 30%
CCN1CCC(NC(=O)c2cc(-c3cnn(-c4ccccc4)c3)c[nH]2)CC1 | 50 to 100%

stdin: I would be grateful if you could share the reported activation at 0.8 µM for CC(=O)N1CCN(C(=O)c2csc(-c3cnn(-c4ccccc4)c3)n2)CC1 .
stdout: 10 to 30%

stdin: I would be grateful if you could share the reported activation at 0.8 µM for CCN1CCC(NC(=O)c2csc(-c3cnn(-c4cnccn4)c3)n2)CC1 .
stdout: 30 to 50%

stdin: I would be grateful if you could share the reported activation at 0.8 µM for CCN1C[C@H]2C[C@@H]1CC2NC(=O)c1csc(-c2cnn(-c3ccccc3)c2)n1 (some centres unmarked) .
stdout: 10 to 30%

stdin: I would be grateful if you could share the reported activation at 0.8 µM for O=C(NCCN1CCCCC1)c1csc(-c2cnn(-c3ccccc3)c2)n1 .
stdout: 30 to 50%

stdin: I would be grateful if you could share the reported activation at 0.8 µM for C[C@H]1CN(C(=O)c2csc(-c3cnn(-c4ncccn4)c3)n2)CCN1 .
stdout: 10 to 30%

###

half-life overview
Experiment: Bioavailability / brain and plasma pharmacokinetics after oral dosing
Assay type: in vivo
Settings: mouse, plasma, oral, 30 mg/kg; CD1 mice; read-out: half-life in plasma (converted)
Report only the number, with the unit h understood.

CCN1CCC(NC(=O)c2csc(-c3cnn(-c4ccccc4)c3)n2)CC1 | 18

Next, consider the following compound.
stdin: I would be grateful if you could share the reported half-life for C[C@H]1CN(C(=O)c2csc(-c3cnn(-c4ccccc4)c3)n2)CCN1 .
stdout: 1.8

###

Assay: Bioavailability / brain and plasma pharmacokinetics after oral dosing
Type: in vivo
Conditions: mouse, plasma, 30 mg/kg; CD1 mice, oral
quantity: bioavailability

CCN1CCC(NC(=O)c2csc(-c3cnn(-c4ccccc4)c3)n2)CC1 | 100%

stdin: I would be grateful if you could share the reported bioavailability for C[C@H]1CN(C(=O)c2csc(-c3cnn(-c4ccccc4)c3)n2)CCN1 .
stdout: 81%

###

System: SH-SY5Y cells
Experiment: Acidic vesicle formation in SH-SY5Y cells (LysoTracker Deep Red)
Format: cell-based, human
Conditions: 10 μM, 24 hours, relative to DMSO-treated control
Under this convention, yes denotes Fold change in acidic vesicle formation at compound concentration of 10 μM strictly below 3 fold and no denotes Fold change in acidic vesicle formation at compound concentration of 10 μM at or above 3 fold.

C[C@H]1CN(C(=O)c2csc(-c3cnn(-c4ccccc4)n3)n2)CCN1 | yes
CCN1CCC(NC(=O)c2cc(-c3nnc(-c4ccccc4)s3)cs2)CC1 | no
CCN1CCC(NC(=O)c2cc(-c3cnn(-c4ccccc4)c3)c[nH]2)CC1 | yes
CC(C)(C)N1CCC(NC(=O)c2csc(-c3cnn(-c4ccccc4)c3)n2)CC1 | yes
CCN1CCC(N(C)C(=O)c2cc(-c3cnn(-c4ccccc4)c3)c[nH]2)CC1 | yes

stdin: Hello, is Fold change in acidic vesicle formation at compound concentration of 10 μM of the following compound strictly smaller than 3 fold? CCN1CCC(N(C(=O)c2csc(-c3cnn(-c4ccccc4)c3)n2)C(C)C)CC1
stdout: no

stdin: Hello, is Fold change in acidic vesicle formation at compound concentration of 10 μM of the following compound strictly smaller than 3 fold? C[C@H]1CN(C(=O)c2cc(-c3cnn(-c4ccccc4)c3)c[nH]2)CCN1
stdout: no

###

Tested on: U2OS cell line stabling expressing RFP-eGFP-hLC3b
Test: Tandem reporter assay (autophagic flux)
Assay type: cell-based, human
Details: RFP-only puncta as percentage of DMSO-treated control, 1 μM, 24 hours
Short version: Autolysosome % DMSO activity (compound concentration of 1 μM) at least 200% is MET, less is NOT MET.

Completed entries (count: 3):
C[C@H]1CN(C(=O)c2csc(-c3cnn(-c4ccc(C5CC5)cc4)c3)n2)CCN1 | NOT MET
C[C@H]1CN(C(=O)c2csc(-c3cnn(-c4ccc(C(C)(C)C)cc4)c3)n2)CCN1 | MET
CC(C)c1ccc(-n2cc(-c3nc(C(=O)N4CCN[C@@H](C)C4)cs3)cn2)cc1 | MET

stdin: Say whether CC(C)N(C(=O)c1csc(-c2cnn(-c3ccccc3)c2)n1)[C@@H]1CN[C@H](C)C1 shows Autolysosome % DMSO activity (compound concentration of 1 μM) of 200% or more.
stdout: NOT MET

stdin: Say whether CC1CC(N(C(=O)c2csc(-c3cnn(-c4ccccc4)c3)n2)C(C)C)CCN1 (stereo not shown) shows Autolysosome % DMSO activity (compound concentration of 1 μM) of 200% or more.
stdout: NOT MET

stdin: Say whether C[C@H]1CN(C(=O)c2nc(-c3cnn(-c4ccccc4)c3)c[nH]2)CCN1 shows Autolysosome % DMSO activity (compound concentration of 1 μM) of 200% or more.
stdout: NOT MET

stdin: Say whether CC1CC(N(C(=O)c2csc(-c3cnn(-c4ccccc4)c3)n2)C(C)C)CC(C)N1 (stereo not shown) shows Autolysosome % DMSO activity (compound concentration of 1 μM) of 200% or more.
stdout: NOT MET

###

activation at 0.8 µM overview
Test system: Human osteosarcoma U2OS cells
Assay: Assay to measure lysosome and autolysosome (acidic vesicle) formation in U2OS cells
Format: cell-based
Settings: Homo sapiens, concentration of 0.8 μM, read-out: Activity (percentage increase in acidic vesicle formation over the DMSO-treated control)

Consider the reported activation at 0.8 µM for these compounds:
CCN1CCC(N(CC)C(=O)c2csc(-c3cnn(-c4ccccc4)c3)n2)CC1 | > 100%
CC1(C)CN(C(=O)c2csc(-c3cnn(-c4ccccc4)c3)n2)CCN1 | 30 to 50%
CCN1CCC(N(C)C(=O)c2cc(-c3nnc(-c4ccccc4)s3)cs2)CC1 | 10 to 30%
C[C@H]1CN(C(=O)c2csc(-c3cnn(-c4cnccn4)c3)n2)CCN1 | 50 to 100%
C[C@H]1CN(C(=O)c2cc(-c3cnn(-c4ccccc4)c3)c[nH]2)CCN1 | 50 to 100%

stdin: I would be grateful if you could share the reported activation at 0.8 µM for CCN1CCC(N(C)C(=O)c2csc(-c3cnn(-c4cccnc4)c3)n2)CC1 .
stdout: 50 to 100%

stdin: I would be grateful if you could share the reported activation at 0.8 µM for CCN1CCC(N(C)C(=O)c2csc(-c3cnn(-c4ccccc4)c3)n2)CC1 .
stdout: 30 to 50%
